# targetOrSystem: rat P2X7R (Rattus norvegicus, UniProt Q64663)
# Sequence (Q64663 whole entry): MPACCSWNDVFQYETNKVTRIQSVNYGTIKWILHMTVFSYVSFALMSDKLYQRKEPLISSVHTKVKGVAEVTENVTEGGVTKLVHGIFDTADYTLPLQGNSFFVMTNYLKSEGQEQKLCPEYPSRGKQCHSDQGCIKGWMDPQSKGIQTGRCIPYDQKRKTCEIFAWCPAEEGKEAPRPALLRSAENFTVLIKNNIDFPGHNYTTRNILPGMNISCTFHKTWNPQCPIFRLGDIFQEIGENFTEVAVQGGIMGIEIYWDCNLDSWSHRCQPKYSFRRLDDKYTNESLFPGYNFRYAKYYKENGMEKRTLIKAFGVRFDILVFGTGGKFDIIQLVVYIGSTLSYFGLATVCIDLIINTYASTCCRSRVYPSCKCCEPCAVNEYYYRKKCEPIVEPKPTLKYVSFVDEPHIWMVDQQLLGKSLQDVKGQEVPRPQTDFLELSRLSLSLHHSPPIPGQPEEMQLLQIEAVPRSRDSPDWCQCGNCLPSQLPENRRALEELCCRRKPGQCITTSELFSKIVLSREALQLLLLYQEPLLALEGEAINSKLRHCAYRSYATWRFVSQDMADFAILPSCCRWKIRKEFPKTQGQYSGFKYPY
# Format: cell-based
# settings: read-out: IC50, inhibition of current; cells stimulated with 32 µM BzATP
measureName: IC50

[[record]]
smilestext = "Clc1cccc(-c2nnnn2Cc2cccnc2)c1Cl"
targetorsystem = "rat P2X7R (Rattus norvegicus, UniProt Q64663)"
recordedmeasurement = "~300 nM"


----------
# targetOrSystem: rat P2X7R (Rattus norvegicus, UniProt Q64663)
# Type: cell-based
# settings: read-out: IC50, reduction of peak amplitude of current; applied together with 3.2 mM ATP; estimated
measureName: IC50

[[record]]
compound = "Clc1cccc(-c2nnnn2Cc2cccnc2)c1Cl [A438079]"
recordedmeasurement = "~1000 nM"

